# tested_system: catalytic domain (JH1, amino acids 826-1132) of human JAK2 (Homo sapiens, UniProt O60674)
# Construct: catalytic domain (JH1, amino acids 826-1132) of human JAK2; FLAG (N)
# Sequence (O60674 826-1132): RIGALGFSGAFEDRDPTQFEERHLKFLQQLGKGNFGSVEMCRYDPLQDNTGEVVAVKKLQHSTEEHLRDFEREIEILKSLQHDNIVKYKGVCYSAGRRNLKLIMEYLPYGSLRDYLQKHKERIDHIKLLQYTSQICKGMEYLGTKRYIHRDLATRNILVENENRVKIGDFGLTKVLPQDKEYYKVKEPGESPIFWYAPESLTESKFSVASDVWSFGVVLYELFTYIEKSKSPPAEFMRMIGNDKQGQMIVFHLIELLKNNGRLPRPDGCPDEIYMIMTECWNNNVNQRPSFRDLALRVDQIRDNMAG
# assay_explanation: JAK2 LanthaScreen JH1 binding assay
# experimental_conditions: 50 nM tracer, 2 hours at 25° C., read-out: JH1 BIND IC50
pIC50: −log10 of the molar value.

# compound, tested_system, pIC50
rows = [
    ("COC(=O)N[C@H]1C[C@H](N2C(=O)NCc3cnc4[nH]c(-c5cnn(C)c5)c(-c5ccc6c(cnn6C(C)C)c5)c4c32)C1", "catalytic domain (JH1, amino acids 826-1132) of human JAK2 (Homo sapiens, UniProt O60674)", "6.30 to 7.00"),
    ("COC(=O)N[C@H]1C[C@H](N2C(=O)NC(C)c3cnc4[nH]c(-c5cnn(C)c5)c(-c5ccc6c(cnn6C(C)C)c5)c4c32)C1 (mixture of isomers)", "catalytic domain (JH1, amino acids 826-1132) of human JAK2 (Homo sapiens, UniProt O60674)", "< 6.00"),
    ("CC(C)n1ncc2cc(-c3c(-c4cnn(C)c4)[nH]c4ncc5c(c34)N([C@H]3CC[C@@H]3NS(C)(=O)=O)C(=O)NC5)ccc21 (racemic)", "catalytic domain (JH1, amino acids 826-1132) of human JAK2 (Homo sapiens, UniProt O60674)", "< 6.00"),
    ("CC(C)n1ncc2cc(-c3c(-c4cnn(C)c4)[nH]c4ncc5c(c34)N(C3CCC4(CC3)CN(C(=O)NCC(F)F)C4)C(=O)NC5)ccc21", "catalytic domain (JH1, amino acids 826-1132) of human JAK2 (Homo sapiens, UniProt O60674)", "6.30 to 7.00"),
    ("CC(C)n1ncc2cc(-c3c(-c4cnn(C)c4)[nH]c4ncc5c(c34)N([C@H]3CC[C@@H]3NC(=O)NCC(F)F)C(=O)NC5)ccc21 (racemic)", "catalytic domain (JH1, amino acids 826-1132) of human JAK2 (Homo sapiens, UniProt O60674)", "< 6.00"),
]

---

# tested_system: pseudo-kinase domain (JH2, amino-acids 536-812 with 3 surface mutations W659A, W777A, F794H) of human V617F mutant JAK2 (Homo sapiens, UniProt O60674, F794H/V617F/W659A/W777A)
# Construct: pseudo-kinase domain (JH2, amino-acids 536-812 with 3 surface mutations W659A, W777A, F794H); His (C); Avi (biotinylated) (C)
# Sequence (O60674 536-812 V617F/W659A/W777A/F794H): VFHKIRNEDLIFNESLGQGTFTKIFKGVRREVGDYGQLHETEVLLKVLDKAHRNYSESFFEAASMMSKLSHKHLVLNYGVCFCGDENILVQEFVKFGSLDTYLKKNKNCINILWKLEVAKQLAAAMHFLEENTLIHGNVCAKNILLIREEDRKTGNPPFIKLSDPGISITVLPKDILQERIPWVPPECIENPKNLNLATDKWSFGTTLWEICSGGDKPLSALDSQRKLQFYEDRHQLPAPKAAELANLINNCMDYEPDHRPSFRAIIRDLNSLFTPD
# assay_explanation: JAK2 LanthaScreen JH2-V617F binding assay
# experimental_conditions: 50 nM tracer, 1 hour at 25° C., read-out: JH2 BIND V617F IC50
# Protocol: Example C. JAK2 LanthaScreen JH2-V617F Binding Assay JAK2 JH2-V617F binding assay utilizes pseudo-kinase domain (JH2, amino-acids 536-812 with 3 surface mutations W659A, W777A, F794H) of human V617F mutant JAK2 expressed as C-terminal His-Avi-tagged, biotinylated protein in a baculovirus expression system (BPS Bioscience, Catalog #79498). […] After incubation for 1 hour at 25° C., LanthaScreen signals were read on a PHERAstar FS plate reader (BMG LABTECH). […]
pIC50: −log10 of the molar value.

# structure_smiles, pIC50
records = [
    ("CC(C)n1ncc2cc(-c3c(-c4cnn(C)c4)[nH]c4ncc5c(c34)N([C@H]3C[C@@H](NC(=O)c4nc(C(F)(F)F)cs4)C3)C(=O)NC5)ccc21", "6.30 to 7.00"),
    ("COC(=O)N[C@@H]1CC[C@@H](n2c(=O)ncc3cnc4[nH]c(-c5cnn(C)c5)c(-c5ccc6c(cnn6C)c5)c4c32)C1", "6.30 to 7.00"),
    ("COC(=O)N[C@H]1C[C@H](N2C(=O)NCc3cnc4[nH]c(-c5cnn(C)c5)c(-c5ccc6c(cnn6C(C)C)c5)c4c32)C1", "≥ 8.00"),
    ("COC(=O)N[C@@H]1CC[C@@H](N2C(=O)NCc3cnc4[nH]c(-c5cnn(C)c5)c(-c5ccc(OC)cc5)c4c32)C1", "7.00 to 8.00"),
]

---

Measured pIC50, listed per entry.
# tested_system: pseudo-kinase domain (JH2, amino-acids 536-812 with 3 surface mutations W659A, W777A, F794H) of human Wild Type JAK2 (Homo sapiens, UniProt O60674, F794H/W659A/W777A)
# Construct: pseudo-kinase domain (JH2, amino-acids 536-812 with 3 surface mutations W659A, W777A, F794H); His (C); Avi (biotinylated) (C)
# Sequence (O60674 536-812 W659A/W777A/F794H): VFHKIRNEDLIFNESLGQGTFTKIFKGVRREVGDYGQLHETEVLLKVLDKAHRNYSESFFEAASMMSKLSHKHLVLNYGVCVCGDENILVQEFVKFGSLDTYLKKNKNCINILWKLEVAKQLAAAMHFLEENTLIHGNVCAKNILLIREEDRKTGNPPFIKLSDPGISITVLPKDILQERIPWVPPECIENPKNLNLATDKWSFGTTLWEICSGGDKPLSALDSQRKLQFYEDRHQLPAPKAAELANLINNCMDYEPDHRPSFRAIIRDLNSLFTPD
# assay_explanation: JAK2 LanthaScreen JH2-WT binding assay
# experimental_conditions: 50 nM tracer, 1 hour at 25° C., read-out: JH2 BIND WT IC50
pIC50: −log10 of the molar value.

# compound, pIC50
data = [
    ("COC(=O)N[C@@H]1CC[C@@H](N2C(=O)NCc3cnc4[nH]c(-c5cnn(C)c5)c(-c5ccc6c(cnn6C(C)C)c5)c4c32)C1", "≥ 8.00"),
    ("CC(=O)N[C@@H]1CC[C@@H](N2C(=O)NCc3cnc4[nH]c(-c5cnn(C)c5)c(-c5ccc6c(cnn6C(C)C)c5)c4c32)C1", "7.00 to 8.00"),
    ("COC(=O)N[C@H]1C[C@H](N2C(=O)NCc3cnc4[nH]c(-c5cnn(C)c5)c(-c5ccc6c(cnn6C(C)C)c5)c4c32)C1", "≥ 8.00"),
    ("COC(=O)N1CC2(CCC(N3C(=O)NCc4cnc5[nH]c(-c6cnn(C)c6)c(-c6ccc7c(cnn7C(C)C)c6)c5c43)CC2)C1", "7.00 to 8.00"),
    ("COC(=O)N1CCC(N2C(=O)NCc3cnc4[nH]c(-c5cnn(C)c5)c(-c5ccc6c(cnn6C(C)C)c5)c4c32)CC1", "7.00 to 8.00"),
    ("COC(=O)N[C@H]1C[C@@H](N2C(=O)NCc3cnc4[nH]c(-c5cnn(C)c5)c(-c5ccc6c(cnn6C(C)C)c5)c4c32)C1", "7.00 to 8.00"),
    ("CC(=O)N[C@H]1C[C@@H](N2C(=O)NCc3cnc4[nH]c(-c5cnn(C)c5)c(-c5ccc6c(cnn6C(C)C)c5)c4c32)C1", "7.00 to 8.00"),
    ("COC(=O)N[C@@H]1CC[C@@H](n2c(=O)nc(N(C)C)c3cnc4[nH]c(-c5cnn(C)c5)c(-c5ccc6c(cnn6C(C)C)c5)c4c32)C1", "6.30 to 7.00"),
    ("CC(C)n1ncc2cc(-c3c(-c4cnn(C)c4)[nH]c4ncc5c(c34)N([C@H]3CC[C@@H]3NC(=O)NCC(F)F)C(=O)NC5)ccc21 (racemic)", "7.00 to 8.00"),
    ("COC(=O)N[C@@H]1CC[C@@H](N2C(=O)NCc3cnc4[nH]c(-c5cnn(C)c5)c(-c5ccc6c(cnn6CCF)c5)c4c32)C1", "≥ 8.00"),
    ("COC(=O)N[C@H]1C[C@H](N2C(=O)NCc3cnc4[nH]c(-c5ccc(CN6CCOCC6)cc5)c(-c5ccc6c(cnn6C(C)C)c5)c4c32)C1", "≥ 8.00"),
]

---

# tested_system: pseudo-kinase domain (JH2, amino-acids 536-812 with 3 surface mutations W659A, W777A, F794H) of human Wild Type JAK2 (Homo sapiens, UniProt O60674, F794H/W659A/W777A)
# Construct: pseudo-kinase domain (JH2, amino-acids 536-812 with 3 surface mutations W659A, W777A, F794H); His (C); Avi (biotinylated) (C); purchased BPS Bioscience 79463; host or cells: baculovirus expression system
# assay_explanation: JAK2 LanthaScreen JH2-WT binding assay
# experimental_conditions: 50 nM tracer, 1 hour at 25° C., read-out: JH2 BIND WT IC50

# structure_smiles, IC50
data = [
    ("CC(C)n1ncc2cc(-c3c(-c4cnn(C)c4)[nH]c4ncc5c(c34)N([C@H]3C[C@@H](NS(C)(=O)=O)C3)C(=O)NC5)ccc21", "≤ 10 nM"),
    ("COC(=O)N[C@@H]1CC[C@@H](n2c(=O)[nH]c(=O)c3cnc4[nH]c(-c5cnn(C)c5)c(-c5ccc6c(cnn6C(C)C)c5)c4c32)C1", "10 to 100 nM"),
    ("COC(=O)N[C@@H]1CC[C@@H](N2C(=O)NCc3cnc4[nH]c(-c5cnn(C)c5)c(-c5ccc6c(c5)COC6(C)C)c4c32)C1", "≤ 10 nM"),
    ("CC(=O)N[C@H]1C[C@H](N2C(=O)NCc3cnc4[nH]c(-c5cnn(C)c5)c(-c5ccc6c(cnn6C(C)C)c5)c4c32)C1", "10 to 100 nM"),
    ("CC(C)n1ncc2cc(-c3c(-c4cnn(C)c4)[nH]c4ncc5c(c34)N(C3CCC4(CC3)CN(S(=O)(=O)C3(C)CC3)C4)C(=O)NC5)ccc21", "10 to 100 nM"),
    ("CC(C)COC(=O)N[C@@H]1CC[C@@H](N2C(=O)NCc3cnc4[nH]c(-c5cnn(C)c5)c(-c5ccc6c(cnn6C(C)C)c5)c4c32)C1", "10 to 100 nM"),
]
